Source of measurements: patent EP4371976B1

- testSummary: Apparent pKa of LNPs comprising the ionizable lipid (Table 6)
- conditionsUsed: standard formulation 50:10:38.5:1.5
Would you mind telling me the reported Apparent pKa of each entry?

Batch lookup, Apparent pKa per entry.
1. CCCCCCCCC(CCCCCCCC)OC(=O)C(CSCCC(=O)OCC(CC)CCCC)CC(=O)NCCCn1ccnc1 (stereo not shown)
2. CCCCCCCCC(CCCCCC)COC(=O)CCSCC(CC(=O)NCCCN1CCOCC1)C(=O)OC(CCCCCCCC)CCCCCCCC (stereo not shown)
3. CCCCCCCC#CCOC(=O)CCSCC(CC(=O)NC1CCN(C)CC1)C(=O)OCC(CCCCCC)CCCCCCCC (stereo not shown)
4. CCCCCCCCCCCCC(CCCCCCCCCC)COC(=O)CCSCC(CC(=O)NC1CCN(C)CC1)C(=O)OCC(CCCCCC)CCCCCCCC (stereo not shown)
5. CCCCCCCCCCCCOC(=O)CCSCC(CC(=O)NCCCn1ccnc1)C(=O)OC(CCCCCCCC)CCCCCCCC (stereo not shown)
6. CCCCCCCCC(CCCCCC)C(=O)NC(CCSCCC(=O)OCCCCCCCC(C)C)C(=O)NCC1CCN(C)CC1 (stereo not shown)
7. CCCCCCCCCCCCOC(=O)CCSCCC(NC(=O)C(CCCCCC)CCCCCCCC)C(=O)NCC1CCN(C)CC1 (stereo not shown)
8. CCCCCCCCC(CCCCCC)COC(=O)CCSCCC(C(=O)NCCCN1CCOCC1)C(=O)OCC(CCCCCC)CCCCCCCC (stereo not shown)

Given back:
1: 5.80; 2: 6.39; 3: 8.25; 4: 5.23; 5: 6.06; 6: 7.47; 7: 6.86; 8: 5.64

Batch lookup, Apparent pKa per entry.
1. CCCCCCCCC(CCCCCC)C(=O)NC(CCSCCC(=O)OCC(CC)CCCC)C(=O)NCC1CCN(C)CC1 (stereo not shown)
2. CCCCCCCCCCCCC(CCCCCCCCCC)COC(=O)CCSCCC(NC(=O)C(CCCCCC)CCCCCCCC)C(=O)NC1CCN(C)CC1 (stereo not shown)
3. CCCCCCCCC(CCCCCCCC)OC(=O)C(CSCCC(=O)OCCCCCC)CC(=O)NCCCN1CCOCC1 (stereo not shown)
4. CCCCCCCCC(CCCCCC)COC(=O)CCSCC(CC(=O)NC1CCN(C)CC1)C(=O)OCC(CCCCCC)CCCCCCCC (stereo not shown)

Given back:
6.46
5.84
6.53
6.67

Batch lookup, Apparent pKa per entry.
1. CCCCCCCCC(CCCCCCCC)OC(=O)C(CCSCCC(=O)OCC(CC)CCCC)C(=O)NCCCn1ccnc1 (stereo not shown)
2. CCCCCCCCCCC(CCCCCCCC)C(=O)NC(CCSCCC(=O)OCC(CCCCCC)CCCCCCCC)C(=O)NCC1CCN(C)CC1 (stereo not shown)
3. CCCCCCCC#CCOC(=O)CCSCCC(NC(=O)C(CCCCCC)CCCCCCCC)C(=O)NC1CCN(C)CC1 (stereo not shown)
4. CCCCCCCCCCCCOC(=O)CCSCCC(NC(=O)C(CCCCCC)CCCCCCCC)C(=O)NCCN(CC)CC (stereo not shown)
5. CCCCCCCCCCCCOC(=O)CCSCCC(C(=O)NC1CCN(C)CC1)C(=O)OC(CCCCCCCC)CCCCCCCC (stereo not shown)

Given back:
1. 6.33
2. 7.48
3. 6.48
4. 6.65
5. 6.75

Batch lookup, Apparent pKa per entry.
1. CCCCCCCCOC(=O)CCSCC(CC(=O)NCCCN1CCOCC1)C(=O)OC(CCCCCCCC)CCCCCCCC (stereo not shown)
2. CCCCCCCCCCCCCCOC(=O)CCSCCC(C(=O)NC1CCN(C)CC1)C(=O)OC(CCCCCCCC)CCCCCCCC (stereo not shown)

Given back:
[6.51, 6.28]
